The measurements presented in this section are drawn from patent US20120135923A1.

target: T1, hMC4-R (human, UniProt P32245 1-332); assay: competition with [125I]-NDP-α-MSH, CHO-K1 membranes
T1 construct: whole, on cells; Assayed as membranes of CHO-K1 cells expressing the receptor; also called hMC-R receptor subtype 4; melanocortin-4 (MC4-R)
T1 sequence (P32245 whole entry): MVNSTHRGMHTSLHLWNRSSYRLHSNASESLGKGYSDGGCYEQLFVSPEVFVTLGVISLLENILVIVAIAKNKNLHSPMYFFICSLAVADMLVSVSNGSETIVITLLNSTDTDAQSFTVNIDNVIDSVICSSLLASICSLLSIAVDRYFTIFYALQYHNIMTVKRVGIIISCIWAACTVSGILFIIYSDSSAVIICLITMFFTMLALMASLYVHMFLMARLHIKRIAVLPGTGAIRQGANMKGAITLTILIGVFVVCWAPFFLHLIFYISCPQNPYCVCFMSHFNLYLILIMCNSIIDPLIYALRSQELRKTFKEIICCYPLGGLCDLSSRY
Bridge positions count the residues as written; N and C are the ends. Square brackets hold non-standard residues; d marks the D form. 2Nal = N[C@@H](Cc1ccc2ccccc2c1)C(=O)O; hCha = N[C@@H](CCC1CCCCC1)C(=O)O; Pen = CC(C)(S)[C@H](N)C(=O)O; Nle = CCCC[C@H](N)C(=O)O; Ahx = NCCCCCC(=O)O; GABA = NCCCC(=O)O
Just a reminder that ties go to Not met: only Ki strictly below 3 nM counts as Met.

>  <BINDER>
Ac-[Nle]CH[dF]RW[Ahx]C-NH2 (disulfide 2-8) [Ac-Nle-c(Cys-His-D-Phe-Arg-Trp-Ahx-Cys)-NH2]

>  <GROUP LABEL>
Met

$$$$
>  <BINDER>
Ac-CEH[dF]R[2Nal]AC-NH2 (disulfide 1-8) [Ac-c(Cys-Glu-His-D-Phe-Arg-2-Nal-Ala-Cys)-NH2]

>  <GROUP LABEL>
Not met

$$$$

Say whether its Ki is strictly beneath 3 nM. Entry: Ac-CEH[dF]RWAC-NH2 (disulfide 1-8; SMILES CC(=O)N[C@H]1CSSC[C@@H](C(N)=O)NC(=O)[C@H](C)NC(=O)[C@H](Cc2c[nH]c3ccccc23)NC(=O)[C@H](CCCNC(=N)N)NC(=O)[C@@H](Cc2ccccc2)NC(=O)[C@H](Cc2c[nH]cn2)NC(=O)[C@H](CCC(=O)O)NC1=O) [Ac-c(Cys-Glu-His-D-Phe-Arg-Trp-Ala-Cys)-NH2]
Not met

Say whether its Ki is strictly beneath 3 nM. Entry: Ac-RDH[dF]RWAK-NH2 (lactam 2-8) [Ac-Arg-c(Asp-His-D-Phe-Arg-Trp-Ala-Lys)-NH2]
Met

Say whether its Ki is strictly beneath 3 nM. Entry: Ac-[hCha]DH[dF]RW[GABA]K-NH2 (lactam 2-8; SMILES CC(=O)N[C@@H](CCC1CCCCC1)C(=O)N[C@H]1CC(=O)NCCCC[C@@H](C(N)=O)NC(=O)CCCNC(=O)[C@H](Cc2c[nH]c3ccccc23)NC(=O)[C@H](CCCNC(=N)N)NC(=O)[C@@H](Cc2ccccc2)NC(=O)[C@H](Cc2c[nH]cn2)NC1=O) [Ac-hCha-c(Asp-His-D-Phe-Arg-Trp-Gaba-Lys)-NH2]
Not met

Say whether its Ki is strictly beneath 3 nM. Entry: Ac-[Nle]CH[dF]RW[GABA][Pen]-NH2 (disulfide 2-8) [Ac-Nle-c(Cys-His-D-Phe-Arg-Trp-Gaba-Pen)-NH2]
Met

Say whether its Ki is strictly beneath 3 nM. Entry: Ac-ICH[dF]RW[GABA]C-NH2 (disulfide 2-8; SMILES CC[C@H](C)[C@H](NC(C)=O)C(=O)N[C@H]1CSSC[C@@H](C(N)=O)NC(=O)CCCNC(=O)[C@H](Cc2c[nH]c3ccccc23)NC(=O)[C@H](CCCNC(=N)N)NC(=O)[C@@H](Cc2ccccc2)NC(=O)[C@H](Cc2c[nH]cn2)NC1=O) [Ac-Ile-c(Cys-His-D-Phe-Arg-Trp-Gaba-Cys)-NH2]
Met

Say whether its Ki is strictly beneath 3 nM. Entry: Ac-RCH[dF]RW[GABA][Pen]-NH2 (disulfide 2-8; SMILES CC(=O)N[C@@H](CCCNC(=N)N)C(=O)N[C@H]1CSSC(C)(C)[C@@H](C(N)=O)NC(=O)CCCNC(=O)[C@H](Cc2c[nH]c3ccccc23)NC(=O)[C@H](CCCNC(=N)N)NC(=O)[C@@H](Cc2ccccc2)NC(=O)[C@H](Cc2c[nH]cn2)NC1=O) [Ac-Arg-c(Cys-His-D-Phe-Arg-Trp-Gaba-Pen)-NH2]
Not met

Say whether its Ki is strictly beneath 3 nM. Entry: Ac-[Nle]C[dI]H[dF]RWC-NH2 (disulfide 2-8) [Ac-Nle-c(Cys-D-Ile-His-D-Phe-Arg-Trp-Cys)-NH2]
Not met
